Measured SI A2780Cis accompanies every entry in the list below.
# System: A2780Cis (cisplatin-resistant human ovarian cancer)
# testDetails: In vitro cytotoxicity, SRB assay, A2780Cis
# Assay type: cell-based
assayReadout: SI A2780Cis

1. CC[C@@H](C(=O)[C@@H](C)[C@@H](O)[C@H](C)[C@@H]1O[C@@H]([C@@H](CC)C(=O)O)CC[C@@H]1C)[C@H]1O[C@]2(C=C[C@@H](NC(=O)C3CCC3)[C@]3(CC[C@@](C)([C@H]4CC[C@](O)(CC)[C@H](C)O4)O3)O2)[C@H](C)C[C@@H]1C [FLC-00463-1•Na] | 266.3
2. CC[C@@H](C(=O)[C@@H](C)[C@@H](O)[C@H](C)[C@@H]1O[C@@H]([C@@H](CC)C(=O)O)CC[C@@H]1C)[C@H]1O[C@]2(C=C[C@@H](NC(=O)C(=O)NC)[C@]3(CC[C@@](C)([C@H]4CC[C@](O)(CC)[C@H](C)O4)O3)O2)[C@H](C)C[C@@H]1C [FLC-00443-1•Na] | 23.3
3. CC[C@@H](C(=O)[C@@H](C)[C@@H](O)[C@H](C)[C@@H]1O[C@@H]([C@@H](CC)C(=O)O)CC[C@@H]1C)[C@H]1O[C@]2(C=C[C@@H](NC(=O)c3ccccc3C(F)(F)F)[C@]3(CC[C@@](C)([C@H]4CC[C@](O)(CC)[C@H](C)O4)O3)O2)[C@H](C)C[C@@H]1C [FLC-00578-1•Na] | 184.9
4. CC[C@@H](C(=O)[C@@H](C)[C@@H](O)[C@H](C)[C@@H]1O[C@@H]([C@@H](CC)C(=O)O)CC[C@@H]1C)[C@H]1O[C@]2(C=C[C@@H](NC(=O)C(=O)NCc3ccncc3)[C@]3(CC[C@@](C)([C@H]4CC[C@](O)(CC)[C@H](C)O4)O3)O2)[C@H](C)C[C@@H]1C [FLC-00489-1•Na] | 28.0
5. CC[C@@H](C(=O)[C@@H](C)[C@@H](O)[C@H](C)[C@@H]1O[C@@H]([C@@H](CC)C(=O)O)CC[C@@H]1C)[C@H]1O[C@]2(C=C[C@@H](NC(=O)OC3CCN(C)CC3)[C@]3(CC[C@@](C)([C@H]4CC[C@](O)(CC)[C@H](C)O4)O3)O2)[C@H](C)C[C@@H]1C [FLC-00559-1•Na] | 16.2
6. CC[C@@H](C(=O)[C@@H](C)[C@@H](O)[C@H](C)[C@@H]1O[C@@H]([C@@H](CC)C(=O)O)CC[C@@H]1C)[C@H]1O[C@]2(C=C[C@@H](NS(=O)(=O)c3ccc(Br)cc3)[C@]3(CC[C@@](C)([C@H]4CC[C@](O)(CC)[C@H](C)O4)O3)O2)[C@H](C)C[C@@H]1C [FLC-00504-1•Na] | 30.5
7. CC[C@@H](C(=O)[C@@H](C)[C@@H](O)[C@H](C)[C@@H]1O[C@@H]([C@@H](CC)C(=O)O)CC[C@@H]1C)[C@H]1O[C@]2(C=C[C@@H](NC(=O)NCCCN3CCS(=O)(=O)CC3)[C@]3(CC[C@@](C)([C@H]4CC[C@](O)(CC)[C@H](C)O4)O3)O2)[C@H](C)C[C@@H]1C [FLC-00546-1•Na] | 19.5

---

# Test system: Hs294T (human melanoma)
# testDetails: cells
# Format: cell-based
# cond: selectivity coefficient vs normal BALB/3T3 cells
# binarize Hs294T SI: threshold 0.7 inclusive, high side T, low side F

1. CC[C@@H](C(=O)[C@@H](C)[C@@H](O)[C@H](C)[C@@H]1O[C@@H]([C@@H](CC)C(=O)O)CC[C@@H]1C)[C@H]1O[C@]2(C=C[C@@H](NC(=S)NCc3ccccc3)[C@]3(CC[C@@](C)([C@H]4CC[C@](O)(CC)[C@H](C)O4)O3)O2)[C@H](C)C[C@@H]1C | F
2. CC[C@@H](C(=O)[C@@H](C)[C@@H](O)[C@H](C)[C@@H]1O[C@@H]([C@@H](CC)C(=O)O)CC[C@@H]1C)[C@H]1O[C@]2(C=C[C@@H](NC(=O)Nc3ccccc3)[C@]3(CC[C@@](C)([C@H]4CC[C@](O)(CC)[C@H](C)O4)O3)O2)[C@H](C)C[C@@H]1C | T
3. CCCCCCCNC(=O)N[C@@H]1C=C[C@]2(O[C@H]([C@@H](CC)C(=O)[C@@H](C)[C@@H](O)[C@H](C)[C@@H]3O[C@@H]([C@@H](CC)C(=O)O)CC[C@@H]3C)[C@@H](C)C[C@H]2C)O[C@@]12CC[C@@](C)([C@H]1CC[C@](O)(CC)[C@H](C)O1)O2 | F
4. CC[C@@H](C(=O)[C@@H](C)[C@@H](O)[C@H](C)[C@@H]1O[C@@H]([C@@H](CC)C(=O)O)CC[C@@H]1C)[C@H]1O[C@]2(C=C[C@@H](NC(=S)Nc3ccc(Cl)cc3)[C@]3(CC[C@@](C)([C@H]4CC[C@](O)(CC)[C@H](C)O4)O3)O2)[C@H](C)C[C@@H]1C | F
5. CC[C@@H](C(=O)[C@@H](C)[C@@H](O)[C@H](C)[C@@H]1O[C@@H]([C@@H](CC)C(=O)O)CC[C@@H]1C)[C@H]1O[C@]2(C=C[C@@H](NC(=O)NCCc3ccccc3)[C@]3(CC[C@@](C)([C@H]4CC[C@](O)(CC)[C@H](C)O4)O3)O2)[C@H](C)C[C@@H]1C | F
6. CC[C@@H](C(=O)[C@@H](C)[C@@H](O)[C@H](C)[C@@H]1O[C@@H]([C@@H](CC)C(=O)O)CC[C@@H]1C)[C@H]1O[C@]2(C=C[C@@H](NC(=O)NCc3ccccc3)[C@]3(CC[C@@](C)([C@H]4CC[C@](O)(CC)[C@H](C)O4)O3)O2)[C@H](C)C[C@@H]1C | F
7. CC[C@@H](C(=O)[C@@H](C)[C@@H](O)[C@H](C)[C@@H]1O[C@@H]([C@@H](CC)C(=O)O)CC[C@@H]1C)[C@H]1O[C@]2(C=C[C@@H](NC(=S)NC3CCCCC3)[C@]3(CC[C@@](C)([C@H]4CC[C@](O)(CC)[C@H](C)O4)O3)O2)[C@H](C)C[C@@H]1C | T
8. C=CCNC(=O)N[C@@H]1C=C[C@]2(O[C@H]([C@@H](CC)C(=O)[C@@H](C)[C@@H](O)[C@H](C)[C@@H]3O[C@@H]([C@@H](CC)C(=O)O)CC[C@@H]3C)[C@@H](C)C[C@H]2C)O[C@@]12CC[C@@](C)([C@H]1CC[C@](O)(CC)[C@H](C)O1)O2 | F
9. CC[C@@H](C(=O)[C@@H](C)[C@@H](O)[C@H](C)[C@@H]1O[C@@H]([C@@H](CC)C(=O)O)CC[C@@H]1C)[C@H]1O[C@]2(C=C[C@@H](NC(=O)NC3CCCC3)[C@]3(CC[C@@](C)([C@H]4CC[C@](O)(CC)[C@H](C)O4)O3)O2)[C@H](C)C[C@@H]1C | F
10. CC[C@@H](C(=O)[C@@H](C)[C@@H](O)[C@H](C)[C@@H]1O[C@@H]([C@@H](CC)C(=O)O)CC[C@@H]1C)[C@H]1O[C@]2(C=C[C@@H](NC(=S)Nc3ccc(C)cc3)[C@]3(CC[C@@](C)([C@H]4CC[C@](O)(CC)[C@H](C)O4)O3)O2)[C@H](C)C[C@@H]1C | T
11. CC[C@@H](C(=O)[C@@H](C)[C@@H](O)[C@H](C)[C@@H]1O[C@@H]([C@@H](CC)C(=O)O)CC[C@@H]1C)[C@H]1O[C@]2(C=C[C@@H](NC(=S)Nc3ccc(Cl)c(Cl)c3)[C@]3(CC[C@@](C)([C@H]4CC[C@](O)(CC)[C@H](C)O4)O3)O2)[C@H](C)C[C@@H]1C | T

---

# Test system: MV-4-11 (human biphenotypic leukaemia)
# testDetails: In vitro cytotoxicity, MTT assay, MV-4-11
# Type: cell-based
assayReadout: SI MV4-11

1. CC[C@@H](C(=O)[C@@H](C)[C@@H](O)[C@H](C)[C@@H]1O[C@@H]([C@@H](CC)C(=O)O)CC[C@@H]1C)[C@H]1O[C@]2(C=C[C@@H](NC(=O)Nc3cccc(C(F)(F)F)c3)[C@]3(CC[C@@](C)([C@H]4CC[C@](O)(CC)[C@H](C)O4)O3)O2)[C@H](C)C[C@@H]1C | 125.5
2. CC[C@@H](C(=O)[C@@H](C)[C@@H](O)[C@H](C)[C@@H]1O[C@@H]([C@@H](CC)C(=O)O)CC[C@@H]1C)[C@H]1O[C@]2(C=C[C@@H](NC(=O)OCCN3CCOCC3)[C@]3(CC[C@@](C)([C@H]4CC[C@](O)(CC)[C@H](C)O4)O3)O2)[C@H](C)C[C@@H]1C | 14.6
3. CC[C@@H](C(=O)[C@@H](C)[C@@H](O)[C@H](C)[C@@H]1O[C@@H]([C@@H](CC)C(=O)O)CC[C@@H]1C)[C@H]1O[C@]2(C=C[C@@H](NC(=O)OCCCCl)[C@]3(CC[C@@](C)([C@H]4CC[C@](O)(CC)[C@H](C)O4)O3)O2)[C@H](C)C[C@@H]1C | 9.7

The reported numbers originate from patent US20240294541A1.
